Attribute: IC50
Biological target: Sphingosine 1-phosphate receptor 4 (Homo sapiens)
Sequence (O95977 whole entry): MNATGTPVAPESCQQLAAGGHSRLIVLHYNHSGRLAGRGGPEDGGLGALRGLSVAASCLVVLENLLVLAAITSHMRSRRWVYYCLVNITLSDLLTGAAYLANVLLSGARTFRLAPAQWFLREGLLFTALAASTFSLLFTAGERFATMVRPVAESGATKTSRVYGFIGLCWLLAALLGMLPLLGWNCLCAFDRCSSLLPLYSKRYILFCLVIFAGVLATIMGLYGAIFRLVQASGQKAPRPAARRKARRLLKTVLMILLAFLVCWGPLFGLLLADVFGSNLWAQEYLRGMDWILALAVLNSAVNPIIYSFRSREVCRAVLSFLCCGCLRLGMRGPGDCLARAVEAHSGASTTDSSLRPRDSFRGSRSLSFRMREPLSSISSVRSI
Assay: Displacement of [33P]S1P from human S1P4 receptor expressed in CHO cells
// note: answer is a bare numeric in nM

Worked cases, IC50 given:
{"molecule": "CC(C)Cc1ccc(-c2nc(-c3ccc([C@H]4C[C@H](CC(=O)O)CN4)cc3)no2)cc1 (relative stereo)", "unit_of_measurement": "nM", "test_result": 150}
{"molecule": "CC(C)Cc1ccc(-c2nc(-c3ccc([C@H]4C[C@@H](CC(=O)O)CN4)cc3)no2)cc1 (relative stereo)", "unit_of_measurement": "nM", "test_result": 160}
{"molecule": "O=C(O)C[C@@H]1CN[C@@H](c2ccc(-c3noc(-c4ccc(C5CCCCC5)cc4)n3)cc2)C1 (relative stereo)", "unit_of_measurement": "nM", "test_result": 110}
{"molecule": "O=C(O)C[C@@H]1CN[C@@H](c2ccc(-c3noc(-c4ccc([C@@H]5CCC(F)(F)C5)cc4)n3)cc2)C1 (stereo in doubt; 22f)", "unit_of_measurement": "nM", "test_result": 32}
{"molecule": "O=C(O)C1CNC(c2ccc(OCc3cc(-c4ccccc4)c(C(F)(F)F)s3)cc2)C1 (stereo unspecified)", "unit_of_measurement": "nM", "test_result": 2700}

Next:
The recorded IC50 for entry O=C(O)C[C@@H]1CN[C@@H](c2ccc(-c3noc(-c4ccc(C5CCC(F)(F)CC5)cc4)n3)cc2)C1 (relative stereo) equals 110
